Target: Human ST2-fc (human) (UniProt Q01638)
Assay: competition ELISA, coated ST2-fc, competitor IL33-his
Strictly below 0.8 µg/mL in IC50: label 1. Otherwise: label 0.

{"BINDER": "5886-156-H1L0 (antibody, human IgG4 S228P, kappa, V domains shown, Humanized antibody expressed in CHO-K1, purified by protein A) VH: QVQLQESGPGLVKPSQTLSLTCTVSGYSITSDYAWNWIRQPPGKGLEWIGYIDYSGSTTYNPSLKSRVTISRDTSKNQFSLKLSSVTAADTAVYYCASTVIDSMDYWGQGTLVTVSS VL: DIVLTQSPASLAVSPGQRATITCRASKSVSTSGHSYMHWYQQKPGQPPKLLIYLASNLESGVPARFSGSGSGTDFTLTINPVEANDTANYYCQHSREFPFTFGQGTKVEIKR", "LABEL CLASS": "label 0"}
{"BINDER": "5888-153-H1L2 (antibody, human IgG4 S228P, kappa, V domains shown) VH: QVQLVQSGAEVKKPGASVKVSCKASGYTFTDYELHWVRQAPGQGLEWMGTIDPETGDTVYNQKFKARVTMTADKSTSTAYMELSSLRSEDTAVYYCTRAFYNDYDDGFAYWGQGTLVTVSS VL: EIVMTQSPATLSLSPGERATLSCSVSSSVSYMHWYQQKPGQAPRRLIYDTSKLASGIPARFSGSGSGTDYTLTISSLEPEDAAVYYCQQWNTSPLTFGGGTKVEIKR", "LABEL CLASS": "label 0"}
{"BINDER": "5888-153-H3L2 (antibody, human IgG4 S228P, kappa, V domains shown, Humanized antibody) VH: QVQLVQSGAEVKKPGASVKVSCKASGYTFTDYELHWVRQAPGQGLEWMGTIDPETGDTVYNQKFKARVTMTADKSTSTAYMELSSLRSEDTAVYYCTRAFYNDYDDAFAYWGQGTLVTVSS VL: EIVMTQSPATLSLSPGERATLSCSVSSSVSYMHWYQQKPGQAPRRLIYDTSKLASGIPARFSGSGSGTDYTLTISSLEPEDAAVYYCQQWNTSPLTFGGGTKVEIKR", "LABEL CLASS": "label 0"}
{"BINDER": "5888-379-H2L1 (antibody, human IgG4 S228P, kappa, V domains shown, Humanized antibody) VH: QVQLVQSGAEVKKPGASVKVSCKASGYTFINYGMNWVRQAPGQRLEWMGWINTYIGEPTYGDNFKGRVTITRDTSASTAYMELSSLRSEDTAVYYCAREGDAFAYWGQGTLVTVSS VL: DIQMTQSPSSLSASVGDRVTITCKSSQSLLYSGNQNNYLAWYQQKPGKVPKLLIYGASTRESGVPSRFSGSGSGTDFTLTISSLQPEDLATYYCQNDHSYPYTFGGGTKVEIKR", "LABEL CLASS": "label 1"}
{"BINDER": "5888-153H1+L2 (antibody, V domains shown, murine antibody) VH: QVQLQQSGAELVRPGASVTLSCKASGYTFTDYELHWVKQTPVHGLEWIGTIDPETGDTVYNQKFKAKAILTADKSSSTAYMEFRSLTSEDSAVCYCTRAFYNDYDDGFAYWGQGTLVTVSA VL: QIVMTQTPAIMSASPGEKVTMTCSVSSSVSYMHWYQQKSGTSPKRWIYDTSKLASGVPARFSGSGSGTSYSLTINNMEAEDAATYYCQQWNSSPLTFGAGTKLELK", "LABEL CLASS": "label 1"}
{"BINDER": "5888-357-H1L1 (antibody, human IgG4 S228P, kappa, V domains shown) VH: QVQLVQSGAEVKKPGASVKVSCKASGYRFTDSEMHWVRQAPGQGLEWMGTIDPETGGTVYNQKFKGRVTMTADRSTSTVYMELSSLRSEDTAVYYCTRAFYNDFDDGFAYWGQGTMVTVSS VL: EIVMTQSPATLSLSPGERATLSCSASTSVSYMHWYQQKPGQAPRRLIYDTSKLASGIPARFSGSGSGTDYTLTISSLEPEDAAVYYCQQWSSNPLTFGGGTKVEIKR", "LABEL CLASS": "label 1"}
